# target: HLA-DR DRB1*07:01 (Homo sapiens, UniProt P01903+P01911, A100R/A102G/A103Q/D57E/D86V/E43K/F76Y/K127E/L162R/M171V/P40G/Q125H/Q99D/R33Q/R42Y/R54Q/S133A/S66F/T210M/V115G/Y107V/Y59L/Y89S)
# test.method.notes: In vitro HLA binding assay with purified HLA-DR molecules
# test.context: purified HLA-DR molecule; high affinity binding = IC50 <1,000 nM
Ends that are not written are not given here.
readout: IC50 (nM)
Kindly answer with a numeric value in nM, unit omitted.

// below: answered sequences
seq | IC50 / nM
LGVVSTVLLGGVGLV [EXP1-P18] | 433
VEVNKRKSKYKLATS [EXP1-P14] | 8300
RKSKYKLATSVLAGLL [EXP1-P15] | 1.4
VLAGLLGVVSTVLLGGV [EXP1-P17] | 4.6
SVFFLALFFIIFNKE [EXP1-P02] | 7990

Next sequence, IC50 to be filled in.
Please report the recorded IC50 for KLATSVLAGLLGVVS [EXP1-P16] .
133
